tested on: HeLa; assay: Antiproliferative activity against human HeLa cells assessed as reduction in cell viability incubated for 48 hrs by MTT assay; assay type: functional, cell-based
property name: IC50 (nM)
# output: bare number, implied unit nM

[
  {
    "line notation": "CC1=C(O)C(=O)C=C2C1=CC=C1[C@@]2(C)CC[C@@]2(C)[C@@H]3C[C@](C)(C(=O)O)CC[C@]3(C)CC[C@]12C",
    "tested target": "HeLa",
    "reported result": 1210
  }
]

For CN(C)CCCNC(=O)c1cc2cc(Nc3nccc(-c4cccnc4)n3)ccc2[nH]1 , what is its reported IC50?
3750

====

target: Nuclear receptor subfamily 4immunitygroup A member 1 (Homo sapiens, UniProt P22736); assay: Binding affinity to Nur77 (unknown origin)
Sequence (P22736 whole entry): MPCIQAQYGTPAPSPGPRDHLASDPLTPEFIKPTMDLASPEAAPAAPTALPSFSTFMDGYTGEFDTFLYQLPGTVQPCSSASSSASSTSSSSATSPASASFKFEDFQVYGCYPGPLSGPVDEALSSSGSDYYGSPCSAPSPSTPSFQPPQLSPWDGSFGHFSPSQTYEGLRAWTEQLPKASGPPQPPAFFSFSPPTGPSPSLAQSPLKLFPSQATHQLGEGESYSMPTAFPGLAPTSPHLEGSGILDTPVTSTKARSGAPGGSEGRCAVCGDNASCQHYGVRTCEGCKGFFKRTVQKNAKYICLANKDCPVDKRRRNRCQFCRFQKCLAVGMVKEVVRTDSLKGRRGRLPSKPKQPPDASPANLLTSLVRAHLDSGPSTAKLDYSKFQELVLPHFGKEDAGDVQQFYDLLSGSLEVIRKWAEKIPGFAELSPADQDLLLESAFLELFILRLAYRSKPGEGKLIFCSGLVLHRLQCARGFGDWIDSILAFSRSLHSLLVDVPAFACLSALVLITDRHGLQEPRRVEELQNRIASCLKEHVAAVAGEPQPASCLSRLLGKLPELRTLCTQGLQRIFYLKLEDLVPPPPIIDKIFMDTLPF
property name: pKd
// field semantics: pKd = negative decimal log of concentration (mol/L)

What value of pKd on Nuclear receptor subfamily 4immunitygroup A member 1 (Homo sapiens, UniProt P22736) does O=C(N/N=C/c1ccncc1)c1cc2cc(Nc3ccnc4ccccc34)ccc2[nH]1 have?
5.93

====

tested on: HeLa; assay: Antiproliferative activity against human HeLa cells assessed as cell viability at 10 uM incubated for 48 hrs by MTT assay; format: functional; details: read-out: Activity
Rule: viability at 10 µM below 80% gives 1 (yes), anything at or above gives 0 (no).

Find out if reported viability at 10 µM for O=C(NCCN1CCCCC1)c1cc2cc(Nc3nccc(-c4cccnc4)n3)ccc2[nH]1 is less than 80%
1 (yes)

Find out if reported viability at 10 µM for Cc1ccc(NC(=O)c2cc3cc(Nc4nccc(-c5cccnc5)n4)ccc3[nH]2)cc1Nc1nccc(-c2cccnc2)n1 is less than 80%
0 (no)

Find out if reported viability at 10 µM for O=C(Nc1ccc(F)c(F)c1F)c1cc2cc(Nc3nccc(-c4cccnc4)n3)ccc2[nH]1 is less than 80%
0 (no)

Find out if reported viability at 10 µM for O=C(c1cc2cc(Nc3nccc(-c4cccnc4)n3)ccc2[nH]1)N1CCOCC1 is less than 80%
1 (yes)

====

assay: Cytotoxicity against human L02 cells assessed as cell viability at 10 uM incubated for 48 hrs by MTT assay; format: toxicity, cell-based; conditions: read-out: Activity
Quick reference for viability at 48 h, 10 µM among some compounds
The answer should read as a number with its unit following.

Sample answers from the record:
[
  {
    "line notation": "Nc1ccccc1NC(=O)c1cc2cc(Nc3nccc(-c4cccnc4)n3)ccc2[nH]1",
    "property name": "viability at 48 h, 10 µM",
    "reported result": "71.1%"
  },
  {
    "line notation": "O=C(NCc1cccc(F)c1)c1cc2cc(Nc3nccc(-c4cccnc4)n3)ccc2[nH]1",
    "property name": "viability at 48 h, 10 µM",
    "reported result": "71.1%"
  }
]

For COc1cccc(NC(=O)c2cc3cc(Nc4nccc(-c5cccnc5)n4)ccc3[nH]2)c1 , what is its reported viability at 48 h, 10 µM?
68.6%
